The measured values listed here are drawn from patent US7759331B2.

Target: IGF-1R(h) (Homo sapiens)
Sequence (P08069 31-1367): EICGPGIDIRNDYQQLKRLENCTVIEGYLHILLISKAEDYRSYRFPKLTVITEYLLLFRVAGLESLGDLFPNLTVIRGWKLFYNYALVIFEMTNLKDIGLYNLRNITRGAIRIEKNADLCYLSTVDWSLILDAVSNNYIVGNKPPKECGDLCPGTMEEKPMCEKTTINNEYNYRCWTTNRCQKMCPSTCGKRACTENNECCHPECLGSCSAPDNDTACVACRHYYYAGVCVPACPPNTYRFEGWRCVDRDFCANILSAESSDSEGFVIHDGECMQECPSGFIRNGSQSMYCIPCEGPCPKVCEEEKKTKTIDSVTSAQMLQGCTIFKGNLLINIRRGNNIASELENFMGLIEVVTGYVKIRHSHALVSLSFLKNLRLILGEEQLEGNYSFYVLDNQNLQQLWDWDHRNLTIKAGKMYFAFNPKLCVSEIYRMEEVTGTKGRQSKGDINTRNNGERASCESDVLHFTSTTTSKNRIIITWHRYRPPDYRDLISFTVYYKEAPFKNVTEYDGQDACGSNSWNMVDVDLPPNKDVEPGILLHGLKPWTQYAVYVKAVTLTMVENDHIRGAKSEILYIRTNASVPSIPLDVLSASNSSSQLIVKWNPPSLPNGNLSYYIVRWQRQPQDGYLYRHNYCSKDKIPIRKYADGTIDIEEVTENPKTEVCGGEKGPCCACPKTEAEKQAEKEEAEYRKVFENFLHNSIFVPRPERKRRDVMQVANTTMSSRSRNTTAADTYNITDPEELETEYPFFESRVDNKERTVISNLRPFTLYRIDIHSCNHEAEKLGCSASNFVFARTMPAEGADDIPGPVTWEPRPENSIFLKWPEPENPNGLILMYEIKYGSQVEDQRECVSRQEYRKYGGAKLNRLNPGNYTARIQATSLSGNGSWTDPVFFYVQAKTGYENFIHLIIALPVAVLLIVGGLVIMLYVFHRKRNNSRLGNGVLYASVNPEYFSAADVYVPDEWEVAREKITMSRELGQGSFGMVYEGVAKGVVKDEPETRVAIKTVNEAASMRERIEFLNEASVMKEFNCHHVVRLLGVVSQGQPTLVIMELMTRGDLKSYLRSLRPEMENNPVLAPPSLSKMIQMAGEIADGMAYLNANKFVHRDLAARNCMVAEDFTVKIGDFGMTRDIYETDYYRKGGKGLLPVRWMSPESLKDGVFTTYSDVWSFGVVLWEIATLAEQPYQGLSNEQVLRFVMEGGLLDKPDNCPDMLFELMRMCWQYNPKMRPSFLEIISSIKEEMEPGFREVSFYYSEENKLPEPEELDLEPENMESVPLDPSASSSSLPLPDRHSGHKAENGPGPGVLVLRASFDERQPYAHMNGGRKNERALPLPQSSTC
Test: Protein kinase selectivity panel
Assay type: biochemical
Conditions: 1.0 μM compound, 10 μM ATP
Reported Activity at Protein Kinase Assays (% of control), IGF-1R(h) values follow for various compounds

- CN(C)c1cc2cc(n1)CCCn1cc(c3ccccc31)C1=C(C(=O)NC1=O)c1cn(c3ccccc13)CCC2 [Cpd 2]: 37 % of control
- O=C1NC(=O)C2=C1c1cn(c3ccccc13)CCCc1cc(nc(N3CCCC3)c1)CCCn1cc2c2ccccc21 [Cpd 6]: 42 % of control
- O=C1NC(=O)C2=C1c1cn(c3ccccc13)CCCc1ccc(c(N3CCCC3)n1)CCCn1cc2c2ccccc21 [Cpd 7]: 106 % of control

Now for a further compound.
[in] For CN(C)c1nc2ccc1CCCCn1cc(c3ccccc31)C1=C(C(=O)NC1=O)c1cn(c3ccccc13)CCC2 [Cpd 1] , what is its reported Activity at Protein Kinase Assays (% of control), IGF-1R(h)?
[out] 84 % of control
